- Method description: chemical genetic growth profiling, strain panel (AID 1159580);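 also: tested at 20 µM; growth read once vehicle control cultures reached saturation at 30 °C; 1 = growth at the plate median or of vehicle wells; lower values mean less growth of the strain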
- Stated conditions: S. cerevisiae deletion strains, growth OD, locus YJL168C, strain set2
The whole screen tested about 5,500 compounds, of which about 2,000 (36%) were called active. Another 18% or so got no clear call; they are omitted. Rule as the data show it: active = normalized growth mostly below about 0.91 (no sharp cut-off); inconclusive = no clear call, values can overlap the other calls; inactive = mostly above about 0.92. The list shows a part of the results.
Choose one outcome from this list and give only that: class 1 for active, class 0 for inactive

Just curious, what result did COc1cc2c(cc1OC)C1C(=O)c3ccc4c(c3OC1CO2)CCC(C)(C)O4 (configuration not stated) get here? class 0

Just curious, what result did CN1CCC(=C2c3ccccc3Sc3ccccc32)CC1 get here? class 0

Just curious, what result did CN(C)C(=S)SSC(=S)N(C)C get here? class 1

Just curious, what result did CO[C@H]1[C@H](O)[C@H](O[C@H]2CC[C@]3(C)C4CC[C@]5(C)C(C6=CC(=O)OC6)CC[C@]5(O)C4CC[C@@H]3C2)O[C@@H](C)[C@@H]1O (some centres not stated) get here? class 0

Just curious, what result did COc1cc2c(cc1OC)[C@@H]1C(=O)c3ccc(O)c(CC=C(C)C)c3O[C@@H]1CO2 get here? class 0

Just curious, what result did CC1(C)OC(=O)NC1=O get here? class 0

Just curious, what result did Cc1cccc(C)c1OCC(C)N (configuration not stated) get here? class 0

Just curious, what result did Cc1c(O)c(C(=O)CC(C)C)c2oc3c(C(=O)CC(C)C)c(O)c(C)c(O)c3c2c1O get here? class 0

Just curious, what result did CC(=O)OCC[N+](C)(C)C get here? class 0

Just curious, what result did COc1cc2c(cc1OC)[C@@H]1C(=O)c3ccc(OC)c(CC=C(C)C)c3O[C@@H]1CO2 get here? class 0

Just curious, what result did C=C1C([C@]2(C)C(CC(=O)OC)[C@@](C)(COC(C)=O)OC(=O)C[C@@H]2OC(C)=O)[C@@H](OC=O)[C@H](OC(=O)C(O)C(C)CC)[C@@]2(C)[C@H](c3ccoc3)CC(=O)C12O (some centres not stated) get here? class 0

Just curious, what result did COc1ccc2cc([C@H](C)CO)ccc2c1 get here? class 0

Just curious, what result did O=C(O)C1(O)C[C@@H](O)C(O)[C@H](O)C1 (some centres not stated) get here? class 0

Just curious, what result did CC(=O)NC1SCCC1=O (configuration not stated) get here? class 0

Just curious, what result did CCOC(=O)c1c(C)cc(O)c(C)c1O get here? class 0

Just curious, what result did CC(CCc1ccccc1)NC(C)C(O)c1ccc(O)cc1 (configuration not stated) get here? class 0

Just curious, what result did COc1cc2c(cc1OC)Cc1cc(OC)c(OC)cc1Cc1cc(OC)c(OC)cc1C2 get here? class 0

Just curious, what result did CC1(C)C(C=C(Cl)Cl)C1C(=O)OC(C#N)c1cccc(Oc2ccccc2)c1 (configuration not stated) get here? class 0

Just curious, what result did OCC(O)C(O)C(O)CO (configuration not stated) get here? class 0

Just curious, what result did O=C1C=CC(=C(c2ccc(O)cc2)c2ccc(O)cc2)C=C1 get here? class 0

Just curious, what result did S=c1nc[nH]c2nc[nH]c12 get here? class 0

Just curious, what result did CC1=C(/C=C/C(C)=C/C=C/C(C)=C/C=C/C=C(C)/C=C/C=C(C)/C=C/C2=C(C)C(=O)C(O)CC2(C)C)C(C)(C)CC(O)C1=O (configuration not stated) get here? class 0

Just curious, what result did CC1CC2C3CC(F)C4=CC(=O)C=CC4(C)C3(F)C(O)CC2(C)C1(O)C(=O)CO (configuration not stated) get here? class 0

Just curious, what result did CN(C)c1ccc(C(=C2C=CC(=[N+](C)C)C=C2)c2ccc(N(C)C)cc2)cc1 get here? class 1

Just curious, what result did CC(C(=O)O)c1ccc(-c2ccccc2)c(F)c1 (configuration not stated) get here? class 0

Just curious, what result did CC(C(=O)O)c1cccc(Oc2ccccc2)c1 (configuration not stated) get here? class 0

Just curious, what result did COc1ccc2c(c1)O[C@@H]1COc3cc(OC)c(OC)cc3[C@@H]1C2=O get here? class 0

Just curious, what result did C=Cc1c2[nH]c(c1C)C=c1[nH]c(c(C)c1C=C)=CC1N=C(C=c3[nH]c(c(C)c3CCC(=O)O)=C2)C(CCC(=O)O)=C1C (configuration not stated) get here? class 0

Just curious, what result did C[N+](C)(C)CCOC(N)=O get here? class 0

Just curious, what result did COc1ccc2c(c1OC)C(=O)O[C@@H]2[C@H]1c2cc3c(cc2CCN1C)OCO3 get here? class 0

Just curious, what result did CC(NCCc1ccc(O)cc1)C(O)c1ccc(O)cc1 (configuration not stated) get here? class 0

Just curious, what result did CCOC(=O)[C@H](CCc1ccccc1)N[C@H]1CCc2ccccc2N(CC(=O)O)C1=O get here? class 0

Just curious, what result did N=c1ccn2c(n1)O[C@@H]1C2O[C@H](CO)[C@H]1O (some centres not stated) get here? class 0

Just curious, what result did COc1cc2c(cc1OC)[C@@H]1C(=O)c3ccc4oc(C(C)C)cc4c3O[C@@H]1CO2 get here? class 0

Just curious, what result did CC(C(=O)O)c1cccc(C(=O)c2ccccc2)c1 (configuration not stated) get here? class 0

Just curious, what result did CN[C@@H](C)[C@@H](O)c1ccccc1 get here? class 0

Just curious, what result did NC(=O)c1ccc[n+]([C@@H]2O[C@H](COP(=O)([O-])OP(=O)(O)OC[C@H]3O[C@@H](n4cnc5c(N)ncnc54)[C@H](O)[C@@H]3O)[C@@H](O)[C@H]2O)c1 get here? class 0

Just curious, what result did COc1cc2c(cc1OC)C1C(=O)c3c(OC)cc4c(c3OC1CO2)CCC(C)(C)O4 (configuration not stated) get here? class 0

Just curious, what result did COc1ccc2c(c1OC)C(=O)O[C@H]2[C@H]1c2cc3c(cc2CCN1C)OCO3 get here? class 0

Just curious, what result did COc1cc2c(cc1OC)[C@@H]1C(=O)c3ccc4c(c3O[C@@H]1CO2)C=CC(C)(C)O4 get here? class 0

Just curious, what result did CN1CCC(=C2c3ccccc3CC(=O)c3sccc32)CC1 get here? class 0

Just curious, what result did CCN(CCO)CCCC(C)Nc1ccnc2cc(Cl)ccc12 (configuration not stated) get here? class 0
